test: Drug hydrolysis in water at pH 4.4 assessed as half life by HPLC-UV analysis; assay type: physicochemical
Property: half-life (h)
Just the number in h, nothing appended.

For the molecule CON(CCCn1cc(CCCCCCCCCCCCCCCCCOc2ccc(C(=O)OC[C@H]3OC(O[C@H]4O[C@H](COC(=O)c5ccc(OCCCCCCCCCCCCCCCCCc6cn(CCCN(OC)[C@H]7O[C@@H](CO)[C@H](O)[C@@H](O[C@H](C)C(=O)N[C@@H](C)C(=O)N[C@H](CCC(=O)O)C(N)=O)[C@@H]7NC(C)=O)nn6)cc5)[C@@H](O)[C@H](O)[C@H]4O)[C@H](O)[C@@H](O)[C@@H]3O)cc2)nn1)[C@@H]1O[C@@H](CO)[C@H](O)[C@@H](O[C@H](C)C(=O)N[C@@H](C)C(=O)N[C@H](CCC(=O)O)C(N)=O)[C@@H]1NC(C)=O (stereo partly specified) , what half-life is on record?
60

----------
test system: HEK293; test: Induction of IL-8 production in HEK293 cells expressing mouse NOD2 at 5 to 50 uM incubated for 20 hrs by ELISA; type: functional, cell-based; details: Homo sapiens, dose 5-50 µM
Calls of active or inactive are those of the source. No cut-off for these calls is given here.
Just give me one of these, please: 1 (yes) = active, 0 (no) = inactive

Could you kindly confirm the outcome this assay logged for CON(CCCn1cc(CCCCCCCCCCCCCCCCCOc2ccc(C(=O)OC[C@H]3OC(O[C@H]4O[C@H](COC(=O)c5ccc(OCCCCCCCCCCCCCCCCCc6cn(CCCN(OC)[C@H]7O[C@@H](CO)[C@H](O)[C@@H](O[C@H](C)C(=O)N[C@@H](C)C(=O)N[C@H](CCC(=O)O)C(N)=O)[C@@H]7NC(C)=O)nn6)cc5)[C@@H](O)[C@H](O)[C@H]4O)[C@H](O)[C@@H](O)[C@@H]3O)cc2)nn1)[C@@H]1O[C@@H](CO)[C@H](O)[C@@H](O[C@H](C)C(=O)N[C@@H](C)C(=O)N[C@H](CCC(=O)O)C(N)=O)[C@@H]1NC(C)=O (some centres undefined) ?
1 (yes)

Follow-up entry: `CCCCCCCCCCCCCCCCCCOc1ccc(C(=O)OC[C@H]2O[C@H](O[C@H]3O[C@H](COC(=O)c4ccc(OCCCCCCCCCCCCCCCCCC)cc4)[C@@H](O)[C@H](O)[C@H]3O)[C@H](O)[C@@H](O)[C@@H]2O)cc1`
0 (no)

Follow-up entry: `CCCCCCCCCCCCCCCCCCOc1ccc(C(=O)OC[C@H]2O[C@H](O[C@H]3O[C@H](COC(=O)c4ccc(OCCCCCCCCCCCCCCCCCC)cc4OCCCCCCCCCCCCCCCCCC)[C@@H](O)[C@H](O)[C@H]3O)[C@H](O)[C@@H](O)[C@@H]2O)c(OCCCCCCCCCCCCCCCCCC)c1`
0 (no)

Follow-up entry: `CCCCCCCCCCCCCCCCCCCCCC(=O)OC[C@@H]1O[C@H](O[C@H]2O[C@H](COC(=O)CCCCCCCCCCCCCCCCCCCCC)[C@@H](O)[C@H](O)[C@H]2O)[C@@H](O)[C@H](O)[C@H]1O`
0 (no)

----------
assay: Drug hydrolysis in water at pH 1 assessed as half life by HPLC-UV analysis; type: physicochemical
Property: half-life (h)
Just the number in h, nothing appended.

For the molecule CON(CCCn1cc(CCCCCCCCCCCCCCCCCOc2ccc(C(=O)OC[C@H]3OC(O[C@H]4O[C@H](COC(=O)c5ccc(OCCCCCCCCCCCCCCCCCc6cn(CCCN(OC)[C@H]7O[C@@H](CO)[C@H](O)[C@@H](O[C@H](C)C(=O)N[C@@H](C)C(=O)N[C@H](CCC(=O)O)C(N)=O)[C@@H]7NC(C)=O)nn6)cc5)[C@@H](O)[C@H](O)[C@H]4O)[C@H](O)[C@@H](O)[C@@H]3O)cc2)nn1)[C@@H]1O[C@@H](CO)[C@H](O)[C@@H](O[C@H](C)C(=O)N[C@@H](C)C(=O)N[C@H](CCC(=O)O)C(N)=O)[C@@H]1NC(C)=O (stereo partly specified) , what half-life is on record?
1
